Data export: MIC values recorded with E. faecium F118 (VRE).
measuredQuantity: MIC (µg/mL)

INSERT INTO results (chemicalstring, measuredquantity, experimentalvalue) VALUES
  ('CN(C)CC[n+]1c(/C=C/C=C2/N(C)c3ccccc3C2(C)C)cc(-c2ccccc2)cc1-c1ccccc1.F[B-](F)(F)F', 'MIC', 32),
  ('CC(C)[n+]1c(/C=C/C=C2/N(C)c3ccccc3C2(C)C)cc(-c2ccccc2)cc1-c1ccccc1.F[B-](F)(F)F', 'MIC', 5),
  ('CC(C)C[n+]1c(/C=C/C=C2/N(C)c3ccccc3C2(C)C)cc(-c2ccccc2)cc1-c1ccccc1.F[B-](F)(F)F', 'MIC', 2),
  ('CN1/C(=C/C=C/c2cc(-c3ccccc3)cc(-c3ccccc3)[n+]2C)C(C)(C)c2ccccc21.F[B-](F)(F)F', 'MIC', 5),
  ('CN1/C(=C/C=C/c2cc(-c3ccccc3)cc(-c3ccccc3)[n+]2CCO)C(C)(C)c2ccccc21.F[B-](F)(F)F', 'MIC', 8);
